species on record: Rattus norvegicus; assay: Open TG-GATES - Regimen: Single; format: toxicity, organism-based, Sprague-Dawley; set-up: regimen Single, gender Male, age 6 weeks; conditions: in vivo, po, 0 mg/kg, 3 h, tissue Plasma, route gavage, dose level Control
assayReadout: AST (IU/L)
Numeric only. Scale: IU/L

Prompt: Fill in: AST of S=C=Nc1cccc2ccccc12 [1-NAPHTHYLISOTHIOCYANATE] is ___
Completion: 73

Prompt: Fill in: AST of Cc1cccc(Nc2cc(Cl)nc(SCC(=O)O)n2)c1C is ___
Completion: 77.6

Prompt: Fill in: AST of CS(=O)(=O)Nc1ccc([N+](=O)[O-])cc1Oc1ccccc1 [NIMESULIDE] is ___
Completion: 63.4

Prompt: Fill in: AST of C=CCO is ___
Completion: 72.2

Prompt: Fill in: AST of COc1ccc(Cl)cc1C(=O)NCCc1ccc(S(=O)(=O)NC(=O)NC2CCCCC2)cc1 [GLYBURIDE] is ___
Completion: 70.8

Prompt: Fill in: AST of Cc1cnc(NC(=O)C2=C(O)c3ccccc3S(=O)(=O)N2C)s1 is ___
Completion: 68

Prompt: Fill in: AST of O=C1NC(=O)C(c2ccccc2)(c2ccccc2)N1 is ___
Completion: 75.6

Prompt: Fill in: AST of Cn1cnc([N+](=O)[O-])c1Sc1ncnc2nc[nH]c12 is ___
Completion: 78.4

Prompt: Fill in: AST of COc1ccc(O)c(C(C)(C)C)c1.COc1ccc(O)cc1C(C)(C)C [BUTYLATED HYDROXYANISOLE] is ___
Completion: 76.4

Prompt: Fill in: AST of O=C1CN(/N=C/c2ccc(-c3ccc([N+](=O)[O-])cc3)o2)C(O)=N1 is ___
Completion: 69.2

---

species: Rattus norvegicus; test: Open TG-GATES - Regimen: Single; type: toxicity, organism-based, Sprague-Dawley; set-up: regimen Single, gender Male, age 6 weeks; details: in vivo, po, 0 mg/kg, 24 h, tissue Plasma, route gavage, dose level Control
assayReadout: RALB (g/dL)
Numeric only. Scale: g/dL

Prompt: Fill in: RALB of S=C=Nc1cccc2ccccc12 [1-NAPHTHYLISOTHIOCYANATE] is ___
Completion: 3.4

Prompt: Fill in: RALB of COc1ccc(Cl)cc1C(=O)NCCc1ccc(S(=O)(=O)NC(=O)NC2CCCCC2)cc1 [GLYBURIDE] is ___
Completion: 3.3

Prompt: Fill in: RALB of CNCCC(Oc1ccc(C(F)(F)F)cc1)c1ccccc1.Cl (stereo not given) [FLUOXETINE HYDROCHLORIDE] is ___
Completion: 4

Prompt: Fill in: RALB of Cc1cnc(NC(=O)C2=C(O)c3ccccc3S(=O)(=O)N2C)s1 is ___
Completion: 3.4

Prompt: Fill in: RALB of C=CCO is ___
Completion: 3.3

---

organism: Rattus norvegicus; assay: Open TG-GATES - Regimen: Single; format: toxicity, organism-based, Sprague-Dawley; set-up: regimen Single, gender Male, age 6 weeks; details: in vivo, po, 0 mg/kg, 3 h, tissue Plasma, route gavage, dose level Control
assayReadout: Ca (mg/dL)
Numeric only. Scale: mg/dL

Prompt: Fill in: Ca of CS(=O)(=O)Nc1ccc([N+](=O)[O-])cc1Oc1ccccc1 [NIMESULIDE] is ___
Completion: 11

Prompt: Fill in: Ca of O=C1CN(/N=C/c2ccc(-c3ccc([N+](=O)[O-])cc3)o2)C(O)=N1 [DANTROLENE] is ___
Completion: 10.6

Prompt: Fill in: Ca of COc1ccc(Cl)cc1C(=O)NCCc1ccc(S(=O)(=O)NC(=O)NC2CCCCC2)cc1 [GLYBURIDE] is ___
Completion: 11

Prompt: Fill in: Ca of COc1ccc(O)c(C(C)(C)C)c1.COc1ccc(O)cc1C(C)(C)C [BUTYLATED HYDROXYANISOLE] is ___
Completion: 11.2
